# Method: DPPH radical scavenging activity at 100 uM relative to control
# Assay type: ADME
Test Readout: Activity (%)

Some solved entries appear below for comparison.
Molecular String | Activity (%)
CCCCc1ccc(-c2c(C)[nH]c(=O)n2C)cc1 | 98
CCCCc1ccc(-c2c(C)[nH]c(=O)n2C(C)C)cc1 | 78

a. CCCCOc1ccc(-c2c(C)[nH]c(=O)n2C2CCCCC2)cc1
b. CCCCc1ccc(-c2c(C)[nH]c(=O)n2Cc2ccccc2)cc1
From the recorded data, which exceeds the other in Activity: a or b ? Please reply using the label of the selected record.
a
